Reported koff values are given for each entry in this list.
# ASSAYED_TARGET: T1, human interleukin 13 receptor alpha 2 (IL-13Rα2), biotinylated (human, UniProt Q14627 27-343, limits assumed, biotinylated (site not stated))
# T1 construct: The methods give construct limits only for IL-13Rα1 and IL-4Rα1; For IL-13Rα2 they say only that the biotinylated receptor was captured on the SA chip; also called IL13RA2; CD213a2
# T1 sequence (looked up): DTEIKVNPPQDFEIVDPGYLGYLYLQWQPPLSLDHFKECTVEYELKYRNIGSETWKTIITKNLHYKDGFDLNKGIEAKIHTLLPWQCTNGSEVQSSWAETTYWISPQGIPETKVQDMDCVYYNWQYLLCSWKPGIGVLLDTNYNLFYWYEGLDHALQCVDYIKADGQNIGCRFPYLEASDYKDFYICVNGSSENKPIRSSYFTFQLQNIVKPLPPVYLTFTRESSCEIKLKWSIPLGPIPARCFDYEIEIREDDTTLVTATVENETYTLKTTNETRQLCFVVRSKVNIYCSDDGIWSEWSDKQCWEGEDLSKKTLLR
# ASSAY_REMARKS: SPR (Biacore T100), biotinylated receptor on SA chip, 1:1 kinetic fit

- BINDER: "B2 (ligand, also called IL-13 variant B2 (V18I, R86T, D87G, T88S, L101Y, K104R, K105A)) cytokine: PGPVPPSTALRELIEELINITQNQKAPLCNGSMVWSINLTAGMYCAALESLINVSGCSAIEKTQRMLSGFCPHKVSAGQFSSLHVTGSKIEVAQFVKDLLYHLRALFREGQFN"
  koff, s⁻¹: 0.01
- BINDER: "C7 (ligand, also called IL-13 variant C7 (R11S, I14M, T88S, L101N, K105A, R108K)) cytokine: PGPVPPSTALSELMEELVNITQNQKAPLCNGSMVWSINLTAGMYCAALESLINVSGCSAIEKTQRMLSGFCPHKVSAGQFSSLHVRDSKIEVAQFVKDLLNHLKALFKEGQFN"
  koff, s⁻¹: 0.00057
- BINDER: "IL-13 variant D7 (IL-13Rα2-selective IL-13 superkine; L10A, V18F, R86K, D87K, K89R, L101I, K104R, R108K) (ligand, the first is used here; also called polypeptide D7) PGPVPPSTAARELIEELFNITQNQKAPLCNGSMVWSINLTAGMYCAALESLINVSGCSAIEKTKRMLSGFCPHKVSAGQFPSLHVKKTRIEVAQFVKDLLIHLRKLFKEGQFNHHHHHH"
  koff, s⁻¹: "5.37e-05"
- BINDER: "A7 (ligand, also called IL-13 variant A7 (L10I, V18I, D87G, T88S, L101H, K104R, K105A)) cytokine: PGPVPPSTAIRELIEELINITQNQKAPLCNGSMVWSINLTAGMYCAALESLINVSGCSAIEKTQRMLSGFCPHKVSAGQFSSLHVRGSKIEVAQFVKDLLHHLRALFREGQFN"
  koff, s⁻¹: 0.0041

All values here come from patent US20210214410A1.
